Every entry's value here was drawn from patent US20120107324A1.

TEST TARGET: human α5β1 integrin (human, UniProt P08648 42-1049; P05556 21-798)
Sequence (P08648 42-1049, chain 1 of 2): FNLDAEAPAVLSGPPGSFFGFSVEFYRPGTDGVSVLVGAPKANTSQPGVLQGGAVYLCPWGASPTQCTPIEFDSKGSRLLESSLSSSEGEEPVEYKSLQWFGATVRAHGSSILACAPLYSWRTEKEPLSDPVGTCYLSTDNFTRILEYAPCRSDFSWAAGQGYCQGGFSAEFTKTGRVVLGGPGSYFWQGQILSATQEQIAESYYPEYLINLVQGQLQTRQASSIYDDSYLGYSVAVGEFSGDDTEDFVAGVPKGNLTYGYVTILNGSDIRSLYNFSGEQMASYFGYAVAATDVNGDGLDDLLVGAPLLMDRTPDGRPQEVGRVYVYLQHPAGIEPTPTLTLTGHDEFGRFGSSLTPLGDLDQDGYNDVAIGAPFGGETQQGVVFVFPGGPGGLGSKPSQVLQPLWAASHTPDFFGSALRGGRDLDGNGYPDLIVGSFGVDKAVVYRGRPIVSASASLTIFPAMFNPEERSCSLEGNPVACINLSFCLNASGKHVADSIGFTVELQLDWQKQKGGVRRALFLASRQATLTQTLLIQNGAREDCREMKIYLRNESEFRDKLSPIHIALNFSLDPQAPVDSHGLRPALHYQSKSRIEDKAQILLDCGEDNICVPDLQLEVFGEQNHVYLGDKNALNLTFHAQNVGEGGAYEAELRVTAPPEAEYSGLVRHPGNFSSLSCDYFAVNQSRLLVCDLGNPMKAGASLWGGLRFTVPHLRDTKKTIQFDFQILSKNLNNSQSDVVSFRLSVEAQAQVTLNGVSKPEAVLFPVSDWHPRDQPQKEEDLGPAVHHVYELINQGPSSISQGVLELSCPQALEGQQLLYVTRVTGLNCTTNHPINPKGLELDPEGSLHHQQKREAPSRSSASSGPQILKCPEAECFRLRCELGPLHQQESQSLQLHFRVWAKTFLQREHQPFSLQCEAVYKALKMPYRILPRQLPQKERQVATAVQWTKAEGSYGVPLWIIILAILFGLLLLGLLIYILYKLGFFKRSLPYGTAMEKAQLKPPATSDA
Sequence (P05556 21-798, chain 2 of 2): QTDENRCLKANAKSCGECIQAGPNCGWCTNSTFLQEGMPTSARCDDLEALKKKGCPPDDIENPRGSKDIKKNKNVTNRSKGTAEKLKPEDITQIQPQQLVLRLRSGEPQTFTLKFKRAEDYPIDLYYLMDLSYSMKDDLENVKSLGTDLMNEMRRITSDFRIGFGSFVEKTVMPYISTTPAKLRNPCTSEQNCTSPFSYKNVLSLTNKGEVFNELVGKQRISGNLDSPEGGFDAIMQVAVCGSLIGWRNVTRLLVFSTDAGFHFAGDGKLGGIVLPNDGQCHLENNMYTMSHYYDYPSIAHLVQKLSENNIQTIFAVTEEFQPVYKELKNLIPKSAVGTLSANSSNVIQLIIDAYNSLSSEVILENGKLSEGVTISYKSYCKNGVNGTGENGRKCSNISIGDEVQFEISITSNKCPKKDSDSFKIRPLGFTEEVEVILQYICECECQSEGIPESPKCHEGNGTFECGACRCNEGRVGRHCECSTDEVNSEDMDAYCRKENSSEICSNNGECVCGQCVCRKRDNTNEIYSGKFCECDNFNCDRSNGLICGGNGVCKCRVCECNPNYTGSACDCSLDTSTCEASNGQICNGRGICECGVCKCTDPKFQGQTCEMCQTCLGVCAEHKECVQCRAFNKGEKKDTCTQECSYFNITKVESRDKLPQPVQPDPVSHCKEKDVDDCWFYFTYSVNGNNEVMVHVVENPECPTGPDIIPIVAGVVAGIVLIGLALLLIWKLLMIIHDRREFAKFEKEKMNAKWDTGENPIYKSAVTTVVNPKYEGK
PROTOCOL: cell-based or functional assay
PARAMETER MEASURED: % Inhibition of cell adhesion, n = 5 (K562 on GST-FNIII(9-10), supernatant 1 in 10) (%)
The response must be a number in % with no trailing unit.

Here is how some binders turned out for % Inhibition of cell adhesion, n = 5 (K562 on GST-FNIII(9-10), supernatant 1 in 10).
1. 2H12 (antibody, IgG4, V domains shown, Identified as an IgG4/k antibody; also called MAb 2H12; 2H12 IgG4) VH: QVQLVESGGGVVQPGRSLRLSCAASGFTFSSYGMHWVRQAPGKGLEWVAVIWYDGTNKYYADSVKGRFTISRDNSKTTLYLQMNSLRAEDTAVYYCARDGAARRGDYYYYYGMDVWGQGTTVTVSS VL: DIVMTQSPLSLPVTPGEPASISCRSSQSLLRGHGYSYLDWYLQKPGQSPQLLIYLGSNRASGVPDRFSGSGSGTDFTLKISRVEAEDVGVYYCMQALQTPFTFGPGTKVDIK    89
2. 3F12.4A1 (antibody, IgG2, V domains shown, Isotype IgG2/k) VH: QVQLVESGGGVVQPGRSLRLSCAASGFTFSSYGMHWVRQAPGKGLEWVAVIWYDGTNKYYADSVKGRFTISRDNSKNTLYLQMNSLTAEDTAVYYCARDMAARRGDYYYYYGMDVWGPGTTVTVSS VL: DIVMTQSPLSLPVTPGEPASISCRSSQSLLNGIGYNFLDWYLQKPGQSPQLLIYLGSNRASGVPDRFSGSGSGTDFTLTISRVEAEDVGVYYCMHALQTPFTFGPGTKVDIK    91
3. 2G2.2B5 (antibody, IgG4, V domains shown, Isotype IgG4/k) VH: QVQLVESGGGVVQPGRSLRLSCAASGFTFSSYGMHWVRQAPGKGLEWVAVIWYDGSNKYYADSVKGRFTISRDNSKNTLYLQMNSLRAEDTAVYYCARDGAARRGDYYYYYGMDVWGQGTTVTVSS VL: EIVMTQSPLSLPVTPGEPASISCRSGQSLLQSTGSNYLAWYLQKPGQSPQLLIYLGSNRASGVPDRFSGSGSGTDFTLKISRVEAEDVGVYYCMQALQTPFTFGPGTKVDIK    78

Next binder, please.
Inquiry: Endpoint output: % Inhibition of cell adhesion, n = 5 (K562 on GST-FNIII(9-10), supernatant 1 in 10) of 4G3.3D11 (antibody, IgG4, V domains shown, Isotype IgG4/k) VH: QVQLVESGGGVVQPGRSLRLSCAASGFIFSSYGMHWVRQAPGKGLEWVAVIWYDGTNKYYADSVKGRFTISRDNSKNTLYLQMNSLRAEDTAVYYCARDGAARRGDYYYYYGMDVWGQGTTVTVSS VL: DIVMTQSPLSLPVTPGEPASISCRSSQSLLHGTGYSSLDWYLQKPGQSPQLLIYLGSNRASGVPDRFSGSGSGTDFTLKISRVEAEDVGVYFCMQALQTPFTFGPGTKVDIK . Value?
Reply text: 81
